test: Hemolytic activity against New Zealand rabbit erythrocytes measured after 60 mins; type: ADME, cell-based, Oryctolagus cuniculus, Erythrocyte; details: read-out: HD50
observed.property: HC50 at 1 h (µM)
Report the figure in µM without appending any unit label.

Example entries begin here.
item.smiles	unit.string	HC50 at 1 h
C[C@@H]1O[C@@H](O[C@H]2[C@H](O[C@H]3CC[C@@]4(C)[C@@H](CC[C@]5(C)[C@@H]4CC(=O)[C@@H]4[C@@H]6CC(C)(C)CC[C@]6(C(=O)O)CC[C@]45C)[C@]3(C)CO)OC[C@H](O[C@@H]3O[C@H](CO)[C@@H](O)[C@H](O)[C@H]3O)[C@@H]2O)[C@H](O)[C@H](O)[C@H]1O	µM	73.1
C[C@@H]1O[C@@H](O[C@H]2[C@H](O[C@H]3CC[C@@]4(C)[C@@H](CC[C@]5(C)[C@@H]4C(=O)C=C4[C@@H]6CC(C)(C)CC[C@]6(C(=O)O)CC[C@]45C)[C@]3(C)CO)OC[C@H](O[C@@H]3O[C@H](CO)[C@@H](O)[C@H](O)[C@H]3O)[C@@H]2O)[C@H](O)[C@H](O)[C@H]1O	µM	239
C[C@@H]1O[C@@H](O[C@H]2[C@H](O[C@H]3CC[C@@]4(C)[C@@H](CC[C@]5(C)[C@@H]4C[C@H](O)[C@]46OC(=O)[C@@]7(CCC(C)(C)C[C@H]74)CC[C@]65C)[C@]3(C)CO)OC[C@H](O[C@@H]3O[C@H](CO)[C@@H](O)[C@H](O)[C@H]3O)[C@@H]2O)[C@H](O)[C@H](O)[C@H]1O	µM	308

Provide only the value of recorded HC50 at 1 h for `C[C@@H]1O[C@@H](O[C@H]2[C@H](O[C@H]3CC[C@@]4(C)[C@@H](CC[C@]5(C)[C@@H]4CC(=O)[C@]46OC(=O)[C@@]7(CCC(C)(C)C[C@H]74)CC[C@@]56C)[C@]3(C)CO)OC[C@H](O[C@@H]3O[C@H](CO)[C@@H](O)[C@H](O)[C@H]3O)[C@@H]2O)[C@H](O)[C@H](O)[C@H]1O`
290
